- test_method_notes: self-splicing fitness, log relative to wild type (ln ratio); higher = more splicing; Tetrahymena group I intron in knt gene, E. coli kanamycin selection, DiMSum; sequences stand for … in CUCUCU…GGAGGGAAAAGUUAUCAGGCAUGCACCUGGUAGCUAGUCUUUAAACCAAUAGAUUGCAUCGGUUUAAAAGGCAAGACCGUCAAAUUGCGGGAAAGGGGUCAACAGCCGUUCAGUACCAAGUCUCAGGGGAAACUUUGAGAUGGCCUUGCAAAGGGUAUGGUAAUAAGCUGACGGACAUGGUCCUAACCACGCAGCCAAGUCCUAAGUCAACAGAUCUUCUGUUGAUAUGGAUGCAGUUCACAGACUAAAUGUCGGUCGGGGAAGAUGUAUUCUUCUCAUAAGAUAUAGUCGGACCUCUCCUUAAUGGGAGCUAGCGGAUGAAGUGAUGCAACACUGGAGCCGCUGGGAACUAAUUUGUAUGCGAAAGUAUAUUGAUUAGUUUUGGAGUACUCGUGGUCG;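 note: selection with 25 µg/mL kanamycin versus none on LB agar overnight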
- test_context: 37 °C
# binarize self-splicing fitness (ln): threshold -2 inclusive, high side met, low side not met

INSERT INTO measurements (residue_string, label_value) VALUES
  ('UACAAGCAAUAUUACGGUCU', 'met'),
  ('UCCAAGCAAUAUUACGUAUA', 'met'),
  ('UCUUAGCAAUAUUACGAUUA', 'met'),
  ('CCCUAGCAAUAUUACGGAAC', 'not met'),
  ('CAAUAGCAAUAUUACGAUCU', 'met'),
  ('CUAGAGCAAUAUUACGAAUC', 'not met'),
  ('UGGUAGCAAUAUUACGCGAA', 'met'),
  ('GCAAAGCAAUAUUACGUUGG', 'met'),
  ('ACGCAGCAAUAUUACGUUGG', 'met'),
  ('GACUAGCAAUAUUACGUUUG', 'not met'),
  ('AUUCAGCAAUAUUACGACAA', 'met'),
  ('AGUAAGCAAUAUUACGCGGC', 'not met'),
  ('UGGCAGCAAUAUUACGGACA', 'met'),
  ('ACUAAGCAAUAUUACGCAAU', 'met'),
  ('GCGCAGCAAUAUUACGGCUA', 'met'),
  ('AUAGAGCAAUAUUACGCGUU', 'met'),
  ('GUGUAGCAAUAUUACGUAAA', 'met'),
  ('ACUCAGCAAUAUUACGUGUA', 'met'),
  ('AGUUAGCAAUAUUACGCGGG', 'met'),
  ('GUAAAGCAAUAUUACGGGUC', 'not met'),
  ('AGGGAGCAAUAUUACGAAAG', 'not met'),
  ('UUGAAGCAAUAUUACGUGAU', 'met'),
  ('GAUUAGCAAUAUUACGUAUA', 'met'),
  ('CUUCAGCAAUAUUACGGAGC', 'not met'),
  ('UCGCAGCAAUAUUACGGGGA', 'met'),
  ('ACUCAGCAAUAUUACGACGG', 'met'),
  ('ACUGAGCAAUAUUACGCACA', 'not met'),
  ('CCGUAGCAAUAUUACGGAGA', 'not met'),
  ('AAGUAGCAAUAUUACGGAUC', 'met'),
  ('UGGAAGCAAUAUUACGACUU', 'met'),
  ('AACGAGCAAUAUUACGGUUU', 'met'),
  ('GCUAAGCAAUAUUACGGCAC', 'met');
